Tested on: Staphylococcus aureus
Experiment: Antibacterial activity against methicillin-sensitive Staphylococcus aureus assessed as complete reduction in bacterial cell growth by CLSI protocol based broth liquid microdilution method
Type: functional
Readout Label: MIC
Could you write the number and then its unit?

Solved cases below.
CC(=O)NC[C@H]1CN(c2ccc(-c3ccc(/C=N/N4CCS(=O)(=O)CC4)cn3)c(F)c2)C(=O)O1; 1 µg/mL
CC(=O)NC[C@H]1CN(c2ccc(-c3ccc(/C=N/N4CCN(C)CC4)c(C)c3)c(F)c2)C(=O)O1; 0.5 µg/mL
CC(=O)NC[C@H]1CN(c2ccc(-c3ccc(/C=N/N4CCNCC4)c(C)c3)c(F)c2)C(=O)O1; 0.5 µg/mL

Query: State its MIC on Staphylococcus aureus: CC(=O)NC[C@H]1CN(c2ccc(N3CCOCC3)c(F)c2)C(=O)O1 [LINEZOLID]
Response: 1 µg/mL

Query: Request: CC(=O)NC[C@H]1CN(c2ccc(-c3ccc(/C=N/N4CC[S+]([O-])CC4)nc3)c(F)c2)C(=O)O1
Response: 0.5 µg/mL

Query: Request: COc1cc(-c2ccc(N3C[C@H](CNC(C)=O)OC3=O)cc2F)ccc1/C=N/N1CCSCC1
Response: 1 µg/mL

###

Test system: Staphylococcus aureus
Experiment: Antibacterial activity against Staphylococcus aureus ATCC 29213 assessed as complete reduction in bacterial cell growth by CLSI protocol based broth liquid microdilution method
Format: functional
Readout Label: MIC (µg/mL)
Give your result in µg/mL as a bare value.

Solved cases below.
CC(=O)NC[C@H]1CN(c2ccc(-c3ccc(/C=N/N4CC[S+]([O-])CC4)nc3)c(F)c2)C(=O)O1; 0.25
CC(=O)NC[C@H]1CN(c2ccc(-c3ccc(/C=N/N4CCSCC4)cn3)c(F)c2)C(=O)O1; 1
CC(=O)NC[C@H]1CN(c2ccc(-c3ccc(/C=N/N4CC[S+]([O-])CC4)c(O)c3)c(F)c2)C(=O)O1; 0.25
CC(=O)NC[C@H]1CN(c2ccc(-c3ccc(/C=N/N4CCS(=O)(=O)CC4)cn3)c(F)c2)C(=O)O1; 2
CC(=O)NC[C@H]1CN(c2ccc(-c3ccc(/C=N/N4CC[S+]([O-])CC4)cn3)c(F)c2)C(=O)O1; 2

Query: State its MIC on Staphylococcus aureus: COc1cc(-c2ccc(N3C[C@H](CNC(C)=O)OC3=O)cc2F)ccc1/C=N/N1CCOCC1
Response: 2

Query: Request: CC(=O)NC[C@H]1CN(c2ccc(N3CCOCC3)c(F)c2)C(=O)O1
Response: 1

Query: Request: CC(=O)NC[C@H]1CN(c2ccc(-c3ccc(/C=N/N4CCOCC4)c(O)c3)c(F)c2)C(=O)O1
Response: 0.25

Query: Request: CC(=O)NC[C@H]1CN(c2ccc(-c3ccc(/C=N/N4CCNCC4)nc3)c(F)c2)C(=O)O1
Response: 0.5

Query: Request: CC(=O)NC[C@H]1CN(c2ccc(-c3ccc(/C=N/N4CCOCC4)c(F)c3)c(F)c2)C(=O)O1
Response: 0.25

Query: Request: CC(=O)NC[C@H]1CN(c2ccc(-c3ccc(/C=N/N4CCSCC4)c(C)c3)c(F)c2)C(=O)O1
Response: 2

Query: Request: CC(=O)NC[C@H]1CN(c2ccc(-c3ccc(/C=N/N4CCSCC4)c(F)c3)c(F)c2)C(=O)O1
Response: 0.25
